- system: Aldo-keto reductase family 1 member C3 (Homo sapiens, UniProt P42330)
- Sequence (P42330 whole entry): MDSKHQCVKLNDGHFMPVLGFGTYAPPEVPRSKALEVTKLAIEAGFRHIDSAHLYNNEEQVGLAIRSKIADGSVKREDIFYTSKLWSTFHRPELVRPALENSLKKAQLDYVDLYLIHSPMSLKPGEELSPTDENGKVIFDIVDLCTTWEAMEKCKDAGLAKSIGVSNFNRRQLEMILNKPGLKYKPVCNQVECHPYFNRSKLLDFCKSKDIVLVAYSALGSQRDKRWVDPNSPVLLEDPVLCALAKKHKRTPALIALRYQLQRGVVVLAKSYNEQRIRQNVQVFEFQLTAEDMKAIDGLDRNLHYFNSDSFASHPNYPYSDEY
- method summary: Inhibition of human recombinant type 2 3-alpha-HSD expressed in Escherichia coli JM109
reported metric: pKi
# log scale: pKi equals minus log10 of the concentration in mol/L

Here is how some compounds turned out for pKi.
O=C(O)c1cc(Br)cc(-c2ccccc2)c1O ... 4.68
O=C(O)c1cc(-c2ccccc2)cc(Br)c1O ... 5.38

Now look at this one.
Summary for this compound, `O=C(O)c1cc(Br)cc(Br)c1O` : pKi is 4.64

###

Form: system (Aldo-keto reductase family 1 member C1 (Homo sapiens, UniProt Q04828)), quantity (pIC50), values below.
# log scale: pIC50 equals minus log10 of the concentration in mol/L

CCc1oc2ccccc2c1C(=O)c1cc(Br)c(O)c(Br)c1 [BENZBROMARONE] ... 7.32

Now look at this one.
Summary for this compound, `O=C1OC(c2cc(Br)c(O)c(Br)c2)(c2cc(Br)c(O)c(Br)c2)c2ccccc21` : pIC50 is 7.48
